Items are presented alongside their recorded activation.
# Tested on: transient receptor potential cation channel N1 (TRPN1/NompC), Danio rerio
# test_details: zebrafish TRPN1 channel agonists, primary screen, cell-based, HEK293, calcium fluorescence (AID 1424);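 note: 0% = DMSO alone and 100% = 87 µM carbachol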
# experimental_setup: HEK293 zebrafish TRPN1-YFP, Fluo-8 calcium fluorescence; at 3 µM; hits give high values; 100% = response to 87 µM carbachol
Screen size: about 220,000 compounds; about 390 (0.18%) were called active. Shown is part of a subset that was picked to be rich in actives.
test_readout: activation (%)

>>> print(df.to_string())
                                    compound  test_readout  quantitative_readout
 0             CC(C)(c1ccccc1)c1ccc(OCCN)cc1    activation                  2.87
 1  CCOC(=O)CC1C(=O)NCCN1C(=O)COc1ccc(Br)cc1C (stereo not drawn)    activation                 -0.63
 2  C=CCNC(=O)c1ccccc1NC(=O)c1ccc(Cl)c(S(=O)(=O)Nc2cccc(C)c2C)c1    activation                  1.27
 3  COC(=O)c1cc(NC(=O)Cc2ccccc2[N+](=O)[O-])ccc1Cl    activation                 -1.23
 4          COc1cc(NC(=O)c2cccnc2SC)cc(OC)c1    activation                 -0.29
 5  O=C(NNC(=S)NCc1ccco1)C(c1ccccc1)c1ccccc1    activation                 -0.07
 6  CCC(C(=O)OCC(=O)Nc1ccc(C(=O)Nc2ccc(OC)cc2)cc1)c1ccccc1 (stereo not drawn)    activation                  2.79
 7         CCN(CC)c1ccc2cc(C(=O)O)c(=O)oc2c1    activation                  1.02
 8      Cc1ccc(NC(=O)Nc2nnc(-c3ccncc3)s2)cc1    activation                  20.7
 9  CCCCC(=O)NNC(=S)NC(=O)C(c1ccccc1)c1ccccc1    activation                  84.8
10        CCc1cccc(C)c1NC(=O)COC(=O)Cc1ccsc1    activation                 -0.93
11  Cc1c(Cl)cccc1NC(=O)Nc1ccc(C(=O)N2CCCC2)cc1    activation                 -0.96
12   Fc1ccc(NC(=S)N2CCc3[nH]c4ccccc4c3C2)cc1    activation                  3.02
13  Cc1ccc2cc(CN(c3ccc(C)c(C)c3)S(C)(=O)=O)c(=O)[nH]c2c1    activation                  1.62
14  Cc1cccn2c(=O)c(/C=C3\SC(=S)N(CC(C)C)C3=O)c(NCCCOC(C)C)nc12    activation                  1.73
15          CCOc1ccccc1N1CN(Cc2ccccc2)CNC1=S    activation                 -0.98
16     Cc1cc(N2CCN(c3ccc(F)cc3)CC2)n2ncnc2n1    activation                  1.97
17  CC(=O)c1ccc(N2CCN(S(=O)(=O)c3c(C)[nH]c(=O)[nH]c3=O)CC2)cc1    activation                  0.25
18  CCC(C(=O)Nc1ccc(C(C)C)cc1)c1ccccc1 (stereo not drawn)    activation                    29
19  CCN(CC)c1ccc2cc(C(N)=O)/c(=N\NC(=O)c3ccncc3)oc2c1    activation                  31.1
20  CCOc1ccc2c(=O)c(-c3ccc4c(c3)OCCCO4)c(C)oc2c1    activation                 -1.72
21  Cc1nc(=O)c(-c2ccccc2)c(C)n1-c1ccc(Br)cc1    activation                  1.06
22  Cc1cc(C)c2[nH]c(=O)c(CN(Cc3ccccc3)C(=S)NCCCN(C)C)cc2c1    activation                 -0.96
